Test system: Trypanosoma brucei rhodesiense
Assay: Antiparasitic activity against Trypanosoma brucei rhodesiense STIB900 blood stream form
Format: functional
Settings: read-out: ED50 (the source's name)
value_kind: pEC50
Keep in mind that pEC50 stands for -log10 of concentration in molar terms.

Consider the reported pEC50 for these compounds:
{"compound": "C=CC(=O)/C=C/c1ccccc1Cl", "pEC50": 5.72}
{"compound": "CN(C)CCC(=O)/C=C/c1ccccc1Cl", "pEC50": 5.74}
{"compound": "N=C(N)c1ccc(OCCCCCOc2ccc(C(=N)N)cc2)cc1 [PENTAMIDINE]", "pEC50": 10.00}

response.value for O=C(/C=C/c1ccccc1Cl)CCN1CCCCC1 (field: pEC50) = 6.10

---

Molecular target: Trypanothione reductase (Trypanosoma cruzi)
Sequence (P28593 whole entry): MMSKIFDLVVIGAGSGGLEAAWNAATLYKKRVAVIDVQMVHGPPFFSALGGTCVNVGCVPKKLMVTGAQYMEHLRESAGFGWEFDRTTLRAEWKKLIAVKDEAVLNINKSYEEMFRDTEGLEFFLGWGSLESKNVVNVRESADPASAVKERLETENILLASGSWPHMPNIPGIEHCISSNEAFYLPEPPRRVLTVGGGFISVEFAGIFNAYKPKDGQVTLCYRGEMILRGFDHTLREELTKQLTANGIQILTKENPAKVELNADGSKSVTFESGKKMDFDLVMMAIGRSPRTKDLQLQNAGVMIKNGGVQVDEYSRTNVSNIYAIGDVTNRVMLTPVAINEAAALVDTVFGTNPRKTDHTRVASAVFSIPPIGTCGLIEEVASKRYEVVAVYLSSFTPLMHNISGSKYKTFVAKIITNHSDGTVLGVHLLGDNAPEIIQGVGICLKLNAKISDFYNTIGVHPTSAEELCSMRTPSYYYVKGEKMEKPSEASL
Test: Inhibition of Trypanosoma cruzi trypanothione reductase in presence of 100 uM TS2 substrate
value_kind: pIC50
Keep in mind that pIC50 stands for -log10 of concentration in molar terms.

response.value for C=CC(=O)/C=C/c1ccccc1Cl (field: pIC50) = 5.10

---

Molecular target: Glutathione reductase, mitochondrial (Homo sapiens)
Experiment: Inhibition of human glutathione reductase after 5 mins pre-incubation with NADPH in presence of 500 uM GSSG substrate
value_kind: pIC50
Keep in mind that pIC50 stands for -log10 of concentration in molar terms.

response.value for C=CC(=O)/C=C/c1ccccc1Cl (field: pIC50) = 5.30

---

Experiment: Inhibition of Plasmodium falciparum thioredoxin reductase after 5 min pre-incubation with NADPH in presence of 34 uM thioredoxin 2 substrate
value_kind: pIC50
Keep in mind that pIC50 stands for -log10 of concentration in molar terms.

response.value for C=CC(=O)/C=C/c1ccccc1Cl (field: pIC50) = 6.40

---

Target: Glutathione reductase, mitochondrial (Homo sapiens, UniProt P00390)
Sequence (P00390 whole entry): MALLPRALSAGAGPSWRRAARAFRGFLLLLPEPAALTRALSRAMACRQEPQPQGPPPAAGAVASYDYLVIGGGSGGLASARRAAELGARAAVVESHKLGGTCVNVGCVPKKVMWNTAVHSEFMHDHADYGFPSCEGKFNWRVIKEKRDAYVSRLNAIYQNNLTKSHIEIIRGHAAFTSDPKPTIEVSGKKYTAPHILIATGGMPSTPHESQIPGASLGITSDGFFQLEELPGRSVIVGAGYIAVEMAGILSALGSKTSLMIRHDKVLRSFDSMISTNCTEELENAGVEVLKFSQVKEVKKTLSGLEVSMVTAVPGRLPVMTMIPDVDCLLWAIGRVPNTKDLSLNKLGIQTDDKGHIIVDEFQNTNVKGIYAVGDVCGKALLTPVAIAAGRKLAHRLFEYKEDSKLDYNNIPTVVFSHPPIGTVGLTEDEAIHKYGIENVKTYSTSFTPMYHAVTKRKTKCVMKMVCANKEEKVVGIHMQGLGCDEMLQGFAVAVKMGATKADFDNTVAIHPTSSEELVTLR
Assay: Inhibition of human glutathione reductase in presence of 500 uM GSSG substrate
value_kind: pIC50
Keep in mind that pIC50 stands for -log10 of concentration in molar terms.

response.value for C=CC(=O)/C=C/c1ccccc1Cl (field: pIC50) = 3.72

---

Assay: Cytotoxicity against human KB cells by Alamar blue assay
Assay type: cell-based
Settings: read-out: ED50 (the source's name)
molecules and their reported CC50
Output spec: scalar in µM, unitless text.

Consider the reported CC50 for these molecules:
{"compound_string": "C=CC(=O)/C=C/c1ccccc1Cl", "CC50 [µM]": 1230}
{"compound_string": "COc1cc([C@@H]2c3cc4c(cc3[C@H](O)[C@H]3COC(=O)[C@H]23)OCO4)cc(OC)c1OC", "CC50 [µM]": 0.07}
{"compound_string": "CN(C)CCC(=O)/C=C/c1ccccc1Cl", "CC50 [µM]": 14.2}

Now consider a different molecule.
response.value for O=C(/C=C/c1ccccc1Cl)CCN1CCCCC1 (field: CC50) = 7.3
